# PROTOCOL SUMMARY: Pharmacokinetic evaluation in cynomolgus monkeys (Test Example 5)
# Format: in vivo
# MEASUREMENT CONDITIONS: cynomolgus monkey; nucleoside X28-1 in plasma; male cynomolgus monkeys; single iv 1.0 mg/kg; read-out: MRT0-∞
MEASURED PROPERTY: MRT inf (h)
Quick reminder: number only, in h, skip the unit.

Exercise: # input compound: O=c1ccn([C@@H]2O[C@](F)(CO)[C@@H](O)[C@H]2O)c(=O)[nH]1 [Compound X28-1, reference compound] ; wanted: its MRT inf
Solution: 4.21

----------
# PROTOCOL SUMMARY: Stability test of compounds in solutions at different pH values
# MEASUREMENT CONDITIONS: buffered saline solution pH 4.0, 24 h
MEASURED PROPERTY: Content reduction (%)
Quick reminder: number only, in %, skip the unit.

> print(dat)
                                   molecule      measured.property  endpoint.result
1  CCC(CC)C(=O)OCn1c(=O)ccn([C@@H]2O[C@](F)(COC(=O)C(C)C)[C@@H](O)[C@H]2O)c1=O [Compound X52]  Content reduction (%)              3.6
2  CC(=O)OC[C@@]1(F)O[C@@H](n2ccc(=O)n(COC(=O)c3cccnc3)c2=O)[C@H](OC(C)=O)[C@@H]1OC(C)=O.Cl [X219 hydrochloride]  Content reduction (%)             0.87
3  CC(=O)OC[C@@]1(F)O[C@@H](n2ccc(=O)n(COC(=O)c3cccnc3)c2=O)[C@H](OC(C)=O)[C@@H]1OC(C)=O [Compound X219]  Content reduction (%)             1.02
4  CC(C)C(=O)OC[C@@]1(F)O[C@@H](n2ccc(=O)n(COC(=O)c3cccnc3)c2=O)[C@H](OC(=O)C(C)C)[C@@H]1OC(=O)C(C)C [Compound X206]  Content reduction (%)              0.0
5  CC(C)C(=O)OCn1c(=O)ccn([C@@H]2O[C@](F)(COC(=O)C(C)C)[C@@H](O)[C@H]2O)c1=O [Compound X51]  Content reduction (%)              5.6
6  CC(C)C(=O)OC[C@@]1(F)O[C@@H](n2ccc(=O)n(COC(=O)C3CCCCC3)c2=O)[C@H](O)[C@@H]1O [Compound X55]  Content reduction (%)             15.4

// moving on: another record for Content reduction (%)
Exercise: # input molecule: O=c1ccn([C@@H]2O[C@](F)(CO)[C@@H](O)[C@H]2O)c(=O)[nH]1 [Compound X28-1, reference compound] ; wanted: its Content reduction (%)
Solution: 40.1

----------
# PROTOCOL SUMMARY: Pharmacokinetic evaluation in rats (Test Example 2)
# Format: in vivo
# MEASUREMENT CONDITIONS: rat; nucleoside X28-1 in plasma; male SD rats; single iv 5.0 mg/kg
MEASURED PROPERTY: Cmax (ng/mL)
Quick reminder: number only, in ng/mL, skip the unit.

Exercise: # input compound: O=c1ccn([C@@H]2O[C@](F)(CO)[C@@H](O)[C@H]2O)c(=O)[nH]1 [Compound X28-1, reference compound] ; wanted: its Cmax
Solution: 2620

----------
# PROTOCOL SUMMARY: Stability test of compounds in solutions at different pH values
# MEASUREMENT CONDITIONS: buffered saline solution pH 4.0, 6 h
Listing of entries alongside the reported Content reduction (%).
Quick reminder: number only, in %, skip the unit.

> print(dat)
                                   compound  value.units  endpoint.result
1  CCC(CC)C(=O)OCn1c(=O)ccn([C@@H]2O[C@](F)(COC(=O)C(C)C)[C@@H](O)[C@H]2O)c1=O            %              1.4

Exercise: # input compound: O=c1ccn([C@@H]2O[C@](F)(CO)[C@@H](O)[C@H]2O)c(=O)[nH]1 [Compound X28-1, reference compound] ; wanted: its Content reduction (%)
Solution: 12.2

Exercise: # input compound: "CC(=O)OC[C@@]1(F)O[C@@H](n2ccc(=O)n(COC(=O)c3cccnc3)c2=O)[C@H](OC(C)=O)[C@@H]1OC(C)=O" ; wanted: its Content reduction (%)
Solution: 0.34

Values were extracted from patent US20250282812A1.
